Recorded hERG current change (%, negative = inhibition) at 10uM for the following compounds
Target: human ether-à-go-go-related gene (hERG) potassium channel (human, UniProt Q12809);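 also: peak tail current of the secondary pulse compared with the same well before compound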
Sequence (Q12809 whole entry, looked up): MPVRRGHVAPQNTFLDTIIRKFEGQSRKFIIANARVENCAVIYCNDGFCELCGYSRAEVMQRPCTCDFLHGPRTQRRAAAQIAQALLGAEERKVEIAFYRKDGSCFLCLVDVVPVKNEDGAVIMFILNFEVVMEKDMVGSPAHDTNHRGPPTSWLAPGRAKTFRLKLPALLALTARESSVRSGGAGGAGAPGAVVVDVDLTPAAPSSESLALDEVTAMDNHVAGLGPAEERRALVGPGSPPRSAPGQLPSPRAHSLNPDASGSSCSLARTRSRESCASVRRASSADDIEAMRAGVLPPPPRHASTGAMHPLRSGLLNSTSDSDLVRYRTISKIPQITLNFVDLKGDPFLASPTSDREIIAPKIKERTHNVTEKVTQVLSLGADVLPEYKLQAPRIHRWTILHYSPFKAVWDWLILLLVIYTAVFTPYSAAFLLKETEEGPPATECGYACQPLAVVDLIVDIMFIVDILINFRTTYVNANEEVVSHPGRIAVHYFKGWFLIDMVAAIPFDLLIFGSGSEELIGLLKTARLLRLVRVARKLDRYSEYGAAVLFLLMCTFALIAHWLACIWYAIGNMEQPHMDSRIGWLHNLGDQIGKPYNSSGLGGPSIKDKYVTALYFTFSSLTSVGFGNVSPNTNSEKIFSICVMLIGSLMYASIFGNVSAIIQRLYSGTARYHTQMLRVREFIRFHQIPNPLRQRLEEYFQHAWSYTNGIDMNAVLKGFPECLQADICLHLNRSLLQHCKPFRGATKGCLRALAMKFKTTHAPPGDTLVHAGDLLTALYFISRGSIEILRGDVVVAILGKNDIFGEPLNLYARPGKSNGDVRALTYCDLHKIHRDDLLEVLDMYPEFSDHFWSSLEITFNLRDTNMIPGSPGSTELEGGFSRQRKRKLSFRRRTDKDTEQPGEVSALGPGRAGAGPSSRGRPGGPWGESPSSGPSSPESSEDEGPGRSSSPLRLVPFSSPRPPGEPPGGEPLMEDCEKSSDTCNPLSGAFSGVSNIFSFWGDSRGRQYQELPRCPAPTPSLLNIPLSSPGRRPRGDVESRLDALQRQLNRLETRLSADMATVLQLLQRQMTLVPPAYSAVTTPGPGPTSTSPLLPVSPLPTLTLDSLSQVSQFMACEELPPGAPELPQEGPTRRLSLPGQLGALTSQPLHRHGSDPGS
Test: primary screen, population patch clamp on CHO cells stably expressing hERG; higher = less effect of the substance
Procedure: Briefly, Chinese hamster ovary (CHO) cells stably expressing the hERG channel were dislodged from tissue culture flasks and dispensed into PPC plates. […] During the recording, background leak currents were estimated by a 100 ms step to -80 mV from an initial holding potential of -70 mV and subtracted from the subsequent current measurement. The campaign was conducted in two phases using slight differences in recording protocol. […]
About 14,000 (4.5%) of roughly 310,000 compounds showed an effect of 50% or more. Effects have a minus sign here. Many of the other results were omitted from the sample, so strong results are more common in it than they were.
measure-name: hERG current change (%, negative = inhibition) at 10uM

compound	result
O=C(c1cc(C2CC2)on1)N1CCCC(N2CCN(c3ccc(F)cc3)CC2)C1 (stereo not drawn)	-63.7%
CC(C)c1cc(C(=O)N2CCCC(N3CCN(c4ccc(F)cc4)CC3)C2)no1 (stereo not drawn)	-72.1%
Cc1cccc(C(=O)N2CCCC(N3CCN(c4ccc(F)cc4)CC3)C2)n1 (stereo not drawn)	-48.4%

###

Target: human ether-à-go-go-related gene (hERG) potassium channel (human, UniProt Q12809);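 also: peak tail current of the secondary pulse compared with the same well before compound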
Experiment: primary screen, population patch clamp on CHO cells stably expressing hERG; higher = less effect of the substance
About 14,000 (4.5%) of roughly 310,000 compounds showed an effect of 50% or more. The effect is printed as a negative number. The sample holds strong results, similar compounds and a random draw of the others, so the mix is not that of the screen.
measure-name: hERG current change (%, negative = inhibition) at 10uM (%)

compound	target-desc	measured-number
CCN(CC)CCN1C(=O)c2ccccc2NC1c1ccc(C)cc1 (centres unmarked)	human ether-à-go-go-related gene (hERG) potassium channel (human, UniProt Q12809)	-66.1
CCc1ccc2nc(N=C(N)N)nc(C)c2c1	human ether-à-go-go-related gene (hERG) potassium channel (human, UniProt Q12809)	-14.3
Cc1ccc(C)c(C(=O)COC(=O)Cn2[nH]c(=O)c3ccccc3c2=O)c1	human ether-à-go-go-related gene (hERG) potassium channel (human, UniProt Q12809)	5.51
O=C(Nc1ccc(F)cc1)N1CCN(CCc2ccccc2)CC1	human ether-à-go-go-related gene (hERG) potassium channel (human, UniProt Q12809)	-52.3
O=C1c2ccccc2NC(c2ccc(F)cc2)N1Cc1ccccc1 (centres unmarked)	human ether-à-go-go-related gene (hERG) potassium channel (human, UniProt Q12809)	-9.65
COCCNC(=O)C1CC(=O)N(c2ccc(OC)cc2)C1c1ccc(OC)cc1 (centres unmarked)	human ether-à-go-go-related gene (hERG) potassium channel (human, UniProt Q12809)	9.03
O=C(Cc1ccc(-n2c(=O)c3ccccc3n(Cc3ccc(F)cc3)c2=O)cc1)NCC1CCCO1 (centres unmarked)	human ether-à-go-go-related gene (hERG) potassium channel (human, UniProt Q12809)	-19.6
Cc1ccc2nc3c(cc(C(=O)NCCc4ccccc4)c(=N)n3CCN3CCOCC3)c(=O)n2c1	human ether-à-go-go-related gene (hERG) potassium channel (human, UniProt Q12809)	-76.7
N=c1c(C(=O)NCC2CCCO2)cc2c(=O)n3ccccc3nc2n1Cc1ccc(F)cc1 (centres unmarked)	human ether-à-go-go-related gene (hERG) potassium channel (human, UniProt Q12809)	-80
N=c1c(C(=O)NCC2CCCO2)cc2c(=O)n3ccccc3nc2n1Cc1ccco1 (centres unmarked)	human ether-à-go-go-related gene (hERG) potassium channel (human, UniProt Q12809)	-78.7
CC[N+](CC)(CCCCS(=O)(=O)[O-])CCNP1(=O)C=C(c2ccccc2)OC(c2ccccc2)=C1	human ether-à-go-go-related gene (hERG) potassium channel (human, UniProt Q12809)	9.75
CCOC(=O)N1CCN(C(=O)Nc2cccc(Cl)c2)CC1	human ether-à-go-go-related gene (hERG) potassium channel (human, UniProt Q12809)	2.81
CCN(CC)CCN1C(=O)c2ccccc2NC1c1cccc(F)c1 (centres unmarked)	human ether-à-go-go-related gene (hERG) potassium channel (human, UniProt Q12809)	-68.2
Cc1cc(NC(=O)CSc2nnc(-c3cccnc3)n2C2CCCCC2C)no1 (centres unmarked)	human ether-à-go-go-related gene (hERG) potassium channel (human, UniProt Q12809)	3.83
O=C1c2ccccc2NC(c2cccc(F)c2)N1Cc1ccccc1 (centres unmarked)	human ether-à-go-go-related gene (hERG) potassium channel (human, UniProt Q12809)	-71.1
Cc1c(Br)cc(C(=O)N2CCCC2)c(C)c1C	human ether-à-go-go-related gene (hERG) potassium channel (human, UniProt Q12809)	0.525
CC(C)(C)c1ccc(C(=O)NCc2cccnc2)cc1	human ether-à-go-go-related gene (hERG) potassium channel (human, UniProt Q12809)	-2.42
COCCN=c1scc(-c2ccccc2)n1/N=C/c1c[nH]c2ccccc12	human ether-à-go-go-related gene (hERG) potassium channel (human, UniProt Q12809)	18.7
COC(=O)c1cc(NC(=O)c2c(C)noc2C)ccc1N1CCOCC1	human ether-à-go-go-related gene (hERG) potassium channel (human, UniProt Q12809)	17.6
COCCN=c1scc(-c2cccs2)n1/N=C/c1ccc(O)c(O)c1O	human ether-à-go-go-related gene (hERG) potassium channel (human, UniProt Q12809)	6.24
O=C(Nc1ccc(F)cc1F)N1CCN(CCc2ccccc2)CC1	human ether-à-go-go-related gene (hERG) potassium channel (human, UniProt Q12809)	-15.6
CCCN1C(=O)c2ccccc2NC1c1ccc(C)cc1 (centres unmarked)	human ether-à-go-go-related gene (hERG) potassium channel (human, UniProt Q12809)	-4.35
CCOC(=O)C1=C(O)CSC1=Nc1ccc(C)cc1	human ether-à-go-go-related gene (hERG) potassium channel (human, UniProt Q12809)	-4.86
O=C(NCC1CCCO1)c1cn(Cc2ccccc2)nc1-c1ccccc1 (centres unmarked)	human ether-à-go-go-related gene (hERG) potassium channel (human, UniProt Q12809)	-0.0253
CC(=O)c1ccc(OCCCC(=O)Nc2cc(S(=O)(=O)N(C)C)ccc2C)cc1	human ether-à-go-go-related gene (hERG) potassium channel (human, UniProt Q12809)	0.514
Cc1ccc(-c2cc(C(=O)NCCCN3CCOCC3)c3ccccc3n2)cc1C	human ether-à-go-go-related gene (hERG) potassium channel (human, UniProt Q12809)	0.698
